Molecular target: T1, Human FM3 (human, UniProt Q9HB89 1-426)
T1 construct: whole, on cells; Assayed as the membrane fraction of FM3-expressing CHO cells (1.2 mg/mL protein); also called NMUR1; FM3 receptor
T1 sequence (looked up): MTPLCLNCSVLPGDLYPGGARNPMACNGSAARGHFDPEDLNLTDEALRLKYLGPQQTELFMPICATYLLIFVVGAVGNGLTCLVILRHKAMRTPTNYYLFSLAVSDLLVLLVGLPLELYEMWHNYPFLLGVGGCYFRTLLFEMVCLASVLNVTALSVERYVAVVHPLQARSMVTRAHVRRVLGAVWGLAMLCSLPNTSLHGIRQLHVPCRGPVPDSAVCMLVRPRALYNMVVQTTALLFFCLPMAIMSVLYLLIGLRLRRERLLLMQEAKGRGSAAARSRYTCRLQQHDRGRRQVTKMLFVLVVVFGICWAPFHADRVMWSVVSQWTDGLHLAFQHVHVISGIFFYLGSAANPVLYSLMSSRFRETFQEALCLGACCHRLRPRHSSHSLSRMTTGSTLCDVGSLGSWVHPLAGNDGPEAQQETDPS
Assay: displacement of 125I-NMU8 from human FM3 CHO membrane fraction; IC50 relative to NMU-8;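 note: binding reaction run for 70 min at 25 °C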
Non-standard residues stand in square brackets, D forms with d. No end group written: not given here. *: point of attachment. Acetyl(2-(piperazin-1-yl)) = O=C(CN1CCNCC1)*; PEG 20 kDa = methoxypolyethylene glycol 20k; βAla = NCCC(=O)O
observable: IC50 ratio

[
  {
    "binder": "[βAla]RFLFRPRN-NH2 (N-terminus assumed; SMILES CC(C)C[C@H](NC(=O)[C@H](Cc1ccccc1)NC(=O)[C@H](CCCNC(=N)N)NC(=O)CCN)C(=O)N[C@@H](Cc1ccccc1)C(=O)N[C@@H](CCCNC(=N)N)C(=O)N1CCC[C@H]1C(=O)N[C@@H](CCCNC(=N)N)C(=O)N[C@@H](CC(N)=O)C(N)=O) [β-Ala0,Arg1-NMU-8 (Compound 7)]",
    "IC50 ratio": "0.42 ratio to NMU-8 (=1)"
  }
]

# evaluate next
Enquiry: For the binder {PEG 20 kDa-Acetyl(2-(piperazin-1-yl))}-YFRFRPRN-NH2 [PEG20k-NpipAc-Arg3-NMU-8 (Compound I)] , what IC50 ratio is on record?
Return: 1.6 ratio to NMU-8 (=1)

Hey, just so you know, these numbers are from patent US20120094899A1.
